- MEASUREMENT_TARGET: T1, human NFU1 (residues 57-254) with N-terminal His-tag (human, UniProt Q9UMS0 57-254)
- T1 construct: Used as apo form or chemically reconstituted holo form carrying a [4Fe-4S] cluster; the assay's format says which; also called apo-NFU1; holo-NFU1; source: E. coli BL21 (DE3), pET-Duet1, purified (HisTrap HP, Superdex 200 gel filtration)
- T1 sequence (looked up): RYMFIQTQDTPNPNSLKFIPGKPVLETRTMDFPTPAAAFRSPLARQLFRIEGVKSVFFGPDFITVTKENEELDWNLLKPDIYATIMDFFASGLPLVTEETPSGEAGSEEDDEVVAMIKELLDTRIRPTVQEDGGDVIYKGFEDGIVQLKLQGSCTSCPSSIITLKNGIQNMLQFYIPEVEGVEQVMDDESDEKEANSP
- PROTOCOL: MST; 200 nM NT-647-labeled BOLA1 or BOLA3, titrated with unlabeled chemically reconstituted holo-NFU1 carrying a [4Fe-4S] cluster (200 µM to 6.1 nM); buffer T, 21°C, anaerobic
- CONDITIONS: both partners purified

{"columns": ["BINDER", "UNIT_OF_MEASURE", "Kd"],
 "data": [
  ["human BOLA3 (residues 25-107) with N-terminal His-tag (natural protein, UniProt Q53S33 25-107, looked up, Labelled with NT-647 dye in MST; source: E. coli BL21 (DE3), pET-Duet1, purified (HisTrap HP, Superdex 200 gel filtration)) MFATQTEGELRVTQILKEKFPRATAIKVTDISGGCGAMYEIKIESEEFKEKRTVQQHQMVNQALKEEIKEMHGLRIFTSVPKR", "nM", 800]
]}

Where do the numbers come from? From paper PMC5014550.
